Test system: Leishmania donovani
Assay remarks: Antileishmanial activity against Leishmania donovani MHOM/IN/Dd8 amastigotes infected in mouse J774A.1 cells assessed as inhibition of parasitic growth at 5 ug/ml after 24 hrs by luciferase activity-based luminescence assay
Type: functional
Measurement context: J774.A1, 24 h, read-out: INH
Decision: Percent inhibition of intracellular amastigote growth at 5 µg/mL compared against 90%; not below it gives Y, below it gives N.

- Compound: "CC1=CCCC(C)(C)C1CCC(=O)/C=C/c1ccc(Cl)cc1 (stereo unspecified)"
  Target desc: "Leishmania donovani"
  Label: "Y"
- Compound: "CC1=CCCC(C)(C)C1CCC(=O)/C=C/c1cccc([N+](=O)[O-])c1 (stereo unspecified)"
  Target desc: "Leishmania donovani"
  Label: "N"
- Compound: "CC1=CCCC(C)(C)C1CCC(=O)/C=C/c1ccc([N+](=O)[O-])cc1 (stereo unspecified)"
  Target desc: "Leishmania donovani"
  Label: "N"
- Compound: "COc1ccc(/C=C/C(=O)CCC2C(C)=CCCC2(C)C)cc1OC (stereo unspecified)"
  Target desc: "Leishmania donovani"
  Label: "Y"
- Compound: "COc1ccc(/C=C/C(=O)CCC2C(C)=CCCC2(C)C)cc1 (stereo unspecified)"
  Target desc: "Leishmania donovani"
  Label: "N"

====

In this section, each of the molecules is paired with its reported inhibition at 5 µg/mL.
Tested on: Leishmania donovani
Assay remarks: Antileishmanial activity against Leishmania donovani MHOM/IN/Dd8 promastigotes assessed as inhibition of parasitic growth at 5 ug/ml after 72 hrs by luciferase activity-based luminescence assay
Assay type: functional
Property measured: inhibition at 5 µg/mL (%)

- Molecule: "COc1cc(/C=C/C(=O)CCC2C(C)=CCCC2(C)C)cc(OC)c1OC (stereo unspecified)"
  Property measured: "inhibition at 5 µg/mL"
  Test value: 90
- Molecule: "CC1=CCCC(C)(C)C1CCC(=O)/C=C/c1cccc([N+](=O)[O-])c1 (stereo unspecified)"
  Property measured: "inhibition at 5 µg/mL"
  Test value: 99
- Molecule: "COc1ccc(/C=C/C(=O)CCC2C(C)=CCCC2(C)C)cc1 (stereo unspecified)"
  Property measured: "inhibition at 5 µg/mL"
  Test value: 98
- Molecule: "CC1=CCCC(C)(C)C1CCC(=O)/C=C/c1cccnc1 (stereo unspecified)"
  Property measured: "inhibition at 5 µg/mL"
  Test value: 100
- Molecule: "CC1=CCCC(C)(C)C1CCC(=O)/C=C/c1ccccc1[N+](=O)[O-] (stereo unspecified)"
  Property measured: "inhibition at 5 µg/mL"
  Test value: 53
- Molecule: "CC1=CCCC(C)(C)C1CCC(=O)/C=C/c1ccc([N+](=O)[O-])cc1 (stereo unspecified)"
  Property measured: "inhibition at 5 µg/mL"
  Test value: 99
- Molecule: "CC1=CCCC(C)(C)C1CCC(=O)/C=C/c1ccc(OCc2ccccc2)cc1 (stereo unspecified)"
  Property measured: "inhibition at 5 µg/mL"
  Test value: 100
- Molecule: "CC1=CCCC(C)(C)C1CCC(=O)/C=C/c1ccc(O)cc1 (stereo unspecified)"
  Property measured: "inhibition at 5 µg/mL"
  Test value: 100
- Molecule: "CC1=CCCC(C)(C)C1CCC(=O)/C=C/c1ccc(Cl)cc1 (stereo unspecified)"
  Property measured: "inhibition at 5 µg/mL"
  Test value: 100
- Molecule: "COc1ccc(/C=C/C(=O)CCC2C(C)=CCCC2(C)C)cc1OC (stereo unspecified)"
  Property measured: "inhibition at 5 µg/mL"
  Test value: 100
- Molecule: "CC1=CCCC(C)(C)C1CCC(=O)/C=C/c1ccc(CO)o1 (stereo unspecified)"
  Property measured: "inhibition at 5 µg/mL"
  Test value: 93

Data credit: ChEMBL document CHEMBL1154441
